Hello, the source for this data is paper PMC10569036, in case you need it.

Documented log partition butyl acetate / HPLC water, unbuffered, traces of methanol / DMSO across a set of compounds
- assay.notes: shake flask on a mixture of 185; loss from the water phase only; LC-Orbitrap peak areas
- experimental.setup: room
Record the value in log10, omitting the unit from your answer.

Some entries whose results are on file:
compound="C=CC(=O)OCC1CC2CC1C1CCC(COC(=O)C=C)C21 (centres unmarked)" display_unit=log10 reported_result=-0.12
compound=Cc1ccc(N)c(S(=O)(=O)O)c1 display_unit=log10 reported_result=0.1277
compound=Nc1ccc(/N=N/c2ccccc2)cc1 display_unit=log10 reported_result=1.2

What log partition butyl acetate / HPLC water, unbuffered, traces of methanol / DMSO value was documented for this compound, Cc1oncc1C(=O)Nc1ccc(C(F)(F)F)cc1 ? 1.635

Okay, and COc1ccccc1/C=C/C=O ? 0.7851

Okay, and Cc1cc(O)cc(C)c1Cl ? 0.7531

Okay, and Cn1cnc([N+](=O)[O-])c1Sc1ncnc2nc[nH]c12 ? 0.621

Okay, and CN1COCN(Cc2cnc(Cl)s2)C1=N[N+](=O)[O-] ? 0.2434

Okay, and CN/C(=N/[N+](=O)[O-])NCC1CCOC1 (centres unmarked) ? 0.08365

Okay, and Nc1cc2c3c(c1)C(c1ccccc1)=N[C@@H](NC(=O)c1cccnc1)C(=O)N3CC2 ? 1.849

Okay, and CCOc1ccc2c(c1)C(C)CC(C)(C)N2 (centres unmarked) ? 0.4802

---

Documented log partition oleylalcohol / HPLC water, unbuffered, traces of methanol / DMSO across a set of molecules
- assay.notes: shake flask on a mixture of 185; loss from the water phase only; LC-Orbitrap peak areas
- experimental.setup: room
Record the value in log10, omitting the unit from your answer.

molecule=Cc1cc(O)cc(C)c1Cl display_unit=log10 reported_result=0.7156

What log partition oleylalcohol / HPLC water, unbuffered, traces of methanol / DMSO value was documented for this molecule, COC(=O)c1ccc(C(=O)OC)c(C(=O)OC)c1 ? 0.6631

Okay, and CC(=O)Nc1ccc(C)cc1C ? 0.7926

Okay, and c1coc(-c2nc3ccccc3[nH]2)c1 ? 1.389

Okay, and CCOc1ccc2[nH]cc(C(=O)NCc3ccccc3)c(=O)c2n1 ? 2.478

Okay, and COc1ccccc1/C=C/C=O ? -0.5567

Okay, and CCCCNS(=O)(=O)c1ccccc1 ? 0.1238

Okay, and CCCCOC(=O)C(C)Oc1ccc(Oc2ccc(C(F)(F)F)cn2)cc1 (stereo not shown) ? 1.914

Okay, and C[C@H](CCC(=O)O)[C@H]1CC[C@H]2[C@@H]3CC[C@@H]4C[C@H](O)CC[C@]4(C)[C@H]3CC[C@]12C ? -0.1437

Okay, and CC(=O)CCc1ccc(OC(C)=O)cc1 ? -0.5711

Okay, and CCCCCCCCCCCCN1CCCCCC1=O ? -0.7875

Okay, and CC(C)N1C(=O)c2ccccc2NS1(=O)=O ? -0.1011

---

- assay.notes: shake flask on a mixture of 185; loss from the water phase only; LC-QTOF peak areas
- experimental.setup: room
property: log partition 1-octanol / HPLC water, unbuffered, traces of methanol / DMSO (log10)
Record the value in log10, omitting the unit from your answer.

Some entries whose results are on file:
compound=CO/N=C(/C1=NOCCO1)c1ccccc1Oc1ncnc(Oc2ccccc2Cl)c1F reported_result=2.317
compound=Oc1c(Cl)cc(Cl)c(Cl)c1Cc1c(O)c(Cl)cc(Cl)c1Cl reported_result=3.536
compound=CN(C1CCCCC1)S(=O)(=O)c1ccccc1N reported_result=-0.8134
compound="CCNC(=O)C1CC(C)CCC1C(C)C (stereo not shown)" reported_result=1.736
compound=CCCOC(=O)c1ccc(C(=O)OCCC)nc1 reported_result=2.274
compound=CCc1ccc(C(=O)NN(C(=O)c2cc(C)cc(C)c2)C(C)(C)C)cc1 reported_result=1.362
compound=C#CC(C)(C)NC(=O)c1cc(Cl)cc(Cl)c1 reported_result=2.331
compound=CCOc1ccc2[nH]cc(C(=O)NCc3ccccc3)c(=O)c2n1 reported_result=2.233

What log partition 1-octanol / HPLC water, unbuffered, traces of methanol / DMSO value was documented for this compound, Cc1ccc([N+](=O)[O-])cc1S(=O)(=O)O ? 2.399

Okay, and O=S(=O)(O)C(F)(F)F ? -1.49

---

- assay.notes: shake flask on a mixture of 185; loss from the water phase only; LC-Orbitrap peak areas
- experimental.setup: room
Mark condition not met for log partition n-hexane / HPLC water, unbuffered, traces of methanol / DMSO values under -0.6 log10, and condition met for everything at or above.

Reference set (5 entries):
molecule=CC(=O)c1ccc2ccccc2c1 answer_label="condition met"
molecule=CN1COCN(Cc2cnc(Cl)s2)C1=N[N+](=O)[O-] answer_label="condition not met"
molecule=CC(C)N1C(=O)c2ccccc2NS1(=O)=O answer_label="condition not met"
molecule=Cc1cc(C)nc(NS(=O)(=O)c2ccc(N)cc2)n1 answer_label="condition not met"
molecule=O=C(c1ccccc1)c1ccc(O)cc1O answer_label="condition not met"

Does CC(C)Nc1nc(N)nc(Cl)n1 have a reported log partition n-hexane / HPLC water, unbuffered, traces of methanol / DMSO of at least -0.6 log10? condition not met

Okay, and CCc1ccc(C(=O)NN(C(=O)c2cc(C)cc(C)c2)C(C)(C)C)cc1 ? condition met

Okay, and OC(c1ccc(F)cc1)(c1cncnc1)c1ccccc1Cl (stereo not drawn) ? condition met

Okay, and CC(=O)/C=C/c1ccccc1 ? condition met

Okay, and c1coc(-c2nc3ccccc3[nH]2)c1 ? condition met

Okay, and CN(C1CCCCC1)S(=O)(=O)c1ccccc1N ? condition met

Okay, and Nc1nc(Cl)nc2c1ncn2[C@H]1C[C@H](O)[C@@H](CO)O1 ? condition not met

---

- assay.notes: shake flask on a mixture of 185; loss from the water phase only; LC-Orbitrap peak areas
- experimental.setup: room
Documented log partition chloroform / HPLC water, unbuffered, traces of methanol / DMSO across a set of molecules
Express your answer as a number followed by its unit.

Some entries whose results are on file:
molecule=CC(C)c1cccc(O)c1 reported_result="0.06183 log10"
molecule="CCCCCCCCCCCC(=O)OCC(O)CO (centres unmarked)" reported_result="-0.7717 log10"
molecule=c1ccc2[nH]c(-c3cscn3)nc2c1 reported_result="1.499 log10"
molecule=CCc1nn(C)c(C(=O)NCc2ccc(C(C)(C)C)cc2)c1Cl reported_result="0.2173 log10"

What log partition chloroform / HPLC water, unbuffered, traces of methanol / DMSO value was documented for this molecule, C=C(C)C(=O)OCCOCCOC(=O)C(=C)C ? 0.3491 log10

Okay, and CCCCNS(=O)(=O)c1ccccc1 ? 0.044 log10

Okay, and CCOc1ccc2c(c1)C(C)CC(C)(C)N2 (centres unmarked) ? 0.1266 log10

Okay, and CC(C)N1C(=O)c2ccccc2NS1(=O)=O ? 1.041 log10

Okay, and CC(C)Nc1nc(N)nc(Cl)n1 ? 1.238 log10

Okay, and N#CC(c1ccccc1)c1ccccc1 ? -0.002518 log10

---

- assay.notes: shake flask on a mixture of 185; loss from the water phase only; LC-Orbitrap peak areas
- experimental.setup: room
property: log partition cyclohexane / HPLC water, unbuffered, traces of methanol / DMSO (log10)
Record the value in log10, omitting the unit from your answer.

compound=CCCN(CCC)c1c([N+](=O)[O-])cc(C(C)C)cc1[N+](=O)[O-] reported_result=-0.3058
compound=COC(=O)c1sccc1S(N)(=O)=O reported_result=-1.037
compound=Cc1cc(O)cc(C)c1Cl reported_result=0.5528
compound=CCC(C)(CC)c1cc(NC(=O)c2c(OC)cccc2OC)on1 reported_result=1.372
compound=CCCCc1ccc(O)cc1 reported_result=-0.5302

What log partition cyclohexane / HPLC water, unbuffered, traces of methanol / DMSO value was documented for this compound, Cc1cc2c3c(c1)C(c1ccccc1)=N[C@@H](NC(=O)c1ccncc1)C(=O)N3CC2 ? 0.6947

Okay, and O=C(Nc1ccccc1-c1ccc(Cl)cc1)c1cccnc1Cl ? 2.491

---

- assay.notes: shake flask on a mixture of 185; loss from the water phase only; LC-Orbitrap peak areas
- experimental.setup: room
Documented log partition toluene / HPLC water, unbuffered, traces of methanol / DMSO across a set of compounds
Record the value in log10, omitting the unit from your answer.

Some entries whose results are on file:
compound=CCCCCCCCCCCCN1CCCCCC1=O display_unit=log10 reported_result=-0.5083
compound=CC(=O)/C=C/c1ccccc1 display_unit=log10 reported_result=-0.2533
compound=CCCCCCOc1cc(C)c(O)c(C)c1C display_unit=log10 reported_result=-0.2013
compound=CC(=O)Oc1ccc(C(C)=O)cc1 display_unit=log10 reported_result=-0.3508
compound=C[C@H](CCC(=O)O)[C@H]1CC[C@H]2[C@@H]3CC[C@@H]4C[C@H](O)CC[C@]4(C)[C@H]3CC[C@]12C display_unit=log10 reported_result=0.6204

What log partition toluene / HPLC water, unbuffered, traces of methanol / DMSO value was documented for this compound, C=CC(=O)OCC1CC2CC1C1CCC(COC(=O)C=C)C21 (stereo not drawn) ? 0.1587

Okay, and COC(=O)c1sccc1S(N)(=O)=O ? 0.3445
